System: Ctenocephalides felis | Read-out: C. felis Mortality (%) 24 h
measured-metric: C. felis Mortality (%) 24 h

>>> df
                                    compound              measured_metric  recorded_value
 0  CCOC(=O)N(CC)N=C(CC)c1cc(Cl)ccc1NS(=O)(=O)C(F)(F)F [Compound 127]  C. felis Mortality (%) 24 h             100
 1  CC(=NN(C)c1ccc(C)cc1)c1cc(Cl)ccc1NS(=O)(=O)C(F)(F)F [Compound 75]  C. felis Mortality (%) 24 h             100
 2  CCOC(=O)N(CCC(C)C)N=C(C)c1cc(Cl)ccc1NS(=O)(=O)C(F)(F)F [Compound 158]  C. felis Mortality (%) 24 h              28
 3  CC(=NN(C)c1ccccc1)c1ccccc1NS(=O)(=O)C(F)(F)F [Compound 114]  C. felis Mortality (%) 24 h              86
 4  CC(=NN(c1ccccc1)C(C)C)c1cc(Cl)ccc1NS(=O)(=O)C(F)(F)F [Compound 28]  C. felis Mortality (%) 24 h             100
 5  CC(=NN(c1ccc(F)cc1)C(C)C)c1cc(Cl)ccc1NS(=O)(=O)C(F)(F)F [Compound 48]  C. felis Mortality (%) 24 h             100
 6  C/C(=N\N(CCC#N)C(=O)C(C)C)c1cc(Cl)ccc1NS(=O)(=O)C(F)(F)F [Compound 223]  C. felis Mortality (%) 24 h             100
 7  CC(=NN(C)c1cccc(C(F)(F)F)c1)c1cc(Cl)ccc1NS(=O)(=O)C(F)(F)F [Compound 203]  C. felis Mortality (%) 24 h              98
 8  CCN(N=C(C)c1cc(Cl)ccc1NS(=O)(=O)C(F)(F)F)c1ccccc1Cl [Compound 37]  C. felis Mortality (%) 24 h              89
 9  CCN(N=C(C)c1cc(Cl)ccc1NS(=O)(=O)C(F)(F)F)C(=O)OC [Compound 139]  C. felis Mortality (%) 24 h             100
10  CCC(=NN(C)C(=O)c1ccc(Cl)cc1Cl)c1cc(Cl)ccc1NS(=O)(=O)C(F)(F)F [Compound 82]  C. felis Mortality (%) 24 h             100
11  CCN(N=C(C)c1cc(Cl)ccc1NS(=O)(=O)C(F)(F)F)c1cc(Cl)cc(Cl)c1 [Compound 70]  C. felis Mortality (%) 24 h             100
12  CC(=NN1CCOC1=O)c1cc(Cl)ccc1NS(=O)(=O)C(F)(F)F [Compound 23]  C. felis Mortality (%) 24 h             100
13  CCN(c1ccc(Cl)cc1C(C)=NN1CCCCC1)S(=O)(=O)C(F)(F)F [Compound 135]  C. felis Mortality (%) 24 h              41
14  CCN(N=C(C)c1cc(Cl)ccc1N(C)S(=O)(=O)C(F)(F)F)c1ccccc1F [Compound 44]  C. felis Mortality (%) 24 h               3
15  CCC(=NN(C)C(=O)c1ccc(Cl)cc1)c1cc(Cl)ccc1NS(=O)(=O)C(F)(F)F [Compound 81]  C. felis Mortality (%) 24 h             100
16  CCCN(N=C(C)c1cc(Cl)ccc1NS(=O)(=O)C(F)(F)F)c1ccc(Cl)cc1 [Compound 27]  C. felis Mortality (%) 24 h             100
